# system.name: human CCR5 (Homo sapiens)
# Sequence (P51681 whole entry): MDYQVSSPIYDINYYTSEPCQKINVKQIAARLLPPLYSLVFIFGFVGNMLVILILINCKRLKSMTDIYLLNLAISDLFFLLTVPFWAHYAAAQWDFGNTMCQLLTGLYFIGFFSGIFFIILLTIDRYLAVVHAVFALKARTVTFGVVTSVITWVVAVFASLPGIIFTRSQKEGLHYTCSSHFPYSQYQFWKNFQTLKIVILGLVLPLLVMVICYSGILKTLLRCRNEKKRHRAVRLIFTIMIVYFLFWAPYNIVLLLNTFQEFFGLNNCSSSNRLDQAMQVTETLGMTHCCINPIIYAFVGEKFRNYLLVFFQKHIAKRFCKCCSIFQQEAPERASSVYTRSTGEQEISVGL
# assay.text: Inhibition test on the binding of RANTES to CCR5 (RANTES-induced transient increase of Ca ion)
# assay.setup: human RANTES 10 nM; CCR5/CHO cell; Ca2+ transient increase
Counter-ions that a name gives are not always drawn.
value.kind: IC50 (nM)
Express the result in nM but write the number alone.

-- ask Request - read-out IC50 | tested on human CCR5 (Homo sapiens) | compound CCCCN1C(=O)[C@@H]([C@H](O)C(CC)CC)NC(=O)C12CCN(Cc1ccc(Cc3ccc(C(=O)NC)cc3Cl)cc1)CC2 [Example 3(179), hydrochloride]
-- reply 10
